Perturb-seq pooled growth sgRNA counts, T0 values, listed per item
tested on: K562 CRISPRi cells; test: Perturb-seq pooled growth measurement (sgRNA counts, growth phenotype γ, relative activity); assay type: cell-based, human; settings: sequencing read counts; T0 = day two after transduction
The response must contain the number and no unit.

SUBSTANCE | QUANTITATIVE READOUT
GINS1_−_25388381.23-P1P2_00: sgRNA targeting GINS1, GGACTAGAACGAAAGGAGTG, SEQ ID NO: 93 (listed as DNA, chemistry not fully specified) | 3621
COX11_+_53045977.23-P1P2_00: sgRNA targeting COX11, GGCTCTGGCGTCCTGGATGG, SEQ ID NO: 141 (listed as DNA, chemistry not fully specified) | 8084
TUBB_+_30688126.23-P1_01: sgRNA targeting TUBB, GCAGCAGGAAGGTTCTGAGA, SEQ ID NO: 106 (listed as DNA, chemistry not fully specified) | 7125
SEC61A1_−_127771295.23-P1_03: sgRNA targeting SEC61A1, GGTACTGACGTGTCTCTCGG, SEQ ID NO: 86 (listed as DNA, chemistry not fully specified) | 5904

Briefly, Perturb-seq pooled growth sgRNA counts, T0 measured for CDC23_−_137548987.23-P1P2_08: sgRNA targeting CDC23, GACAGCCATCGGGACCATGG, SEQ ID NO: 99 (listed as DNA, chemistry not fully specified) : 8986
